- target_entity: Mitogen-activated protein kinase 8 (Homo sapiens, UniProt P45983)
- Sequence (P45983 whole entry): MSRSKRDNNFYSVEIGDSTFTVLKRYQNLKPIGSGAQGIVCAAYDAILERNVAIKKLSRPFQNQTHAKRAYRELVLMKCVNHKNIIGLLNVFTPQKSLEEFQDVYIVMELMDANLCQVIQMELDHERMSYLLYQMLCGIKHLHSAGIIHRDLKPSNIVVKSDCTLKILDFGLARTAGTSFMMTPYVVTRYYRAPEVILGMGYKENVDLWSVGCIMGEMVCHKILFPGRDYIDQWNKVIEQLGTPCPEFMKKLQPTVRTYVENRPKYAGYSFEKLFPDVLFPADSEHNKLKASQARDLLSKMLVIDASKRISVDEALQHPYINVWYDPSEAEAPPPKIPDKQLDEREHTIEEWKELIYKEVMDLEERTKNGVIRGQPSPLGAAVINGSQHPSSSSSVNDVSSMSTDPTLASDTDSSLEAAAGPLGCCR
- experiment: Inhibition of JNK1 at 10 uM
readout_type: inhibition (%)

Request: Consider the compound c1cc(NC2CCNCC2)nc(-n2cnc3ccccc32)c1 and give its measured inhibition.
Response: 0

Request: Consider the compound c1cc(NC2CCNCC2)nc(-c2cncc3ccccc23)c1 and give its measured inhibition.
Response: 5

Request: Consider the compound c1cc(NC2CCNCC2)nc(-n2ccc3ccccc32)c1 and give its measured inhibition.
Response: 0

Request: Consider the compound c1cc(NC2CCNCC2)nc(-c2cnc3ccccn23)c1 and give its measured inhibition.
Response: 39

Request: Consider the compound CN(c1nccc(-c2cnc3ccccn23)n1)C1CCNCC1 and give its measured inhibition.
Response: 33

[a] c1ccn2c(-c3ccnc(NC4CCNCC4)c3)cnc2c1
[b] c1ccn2c(-c3ccnc(OC4CCNCC4)n3)cnc2c1
Request: Could you tell me which of these two has the smaller inhibition figure? First: a Second: b Answer with the label corresponding to your selection.
Response: a
